# ASSAYED_TARGET: T1, zebrafish Tac3rb (tac3 receptor b, NKB receptor) (zebrafish)
# T1 chain: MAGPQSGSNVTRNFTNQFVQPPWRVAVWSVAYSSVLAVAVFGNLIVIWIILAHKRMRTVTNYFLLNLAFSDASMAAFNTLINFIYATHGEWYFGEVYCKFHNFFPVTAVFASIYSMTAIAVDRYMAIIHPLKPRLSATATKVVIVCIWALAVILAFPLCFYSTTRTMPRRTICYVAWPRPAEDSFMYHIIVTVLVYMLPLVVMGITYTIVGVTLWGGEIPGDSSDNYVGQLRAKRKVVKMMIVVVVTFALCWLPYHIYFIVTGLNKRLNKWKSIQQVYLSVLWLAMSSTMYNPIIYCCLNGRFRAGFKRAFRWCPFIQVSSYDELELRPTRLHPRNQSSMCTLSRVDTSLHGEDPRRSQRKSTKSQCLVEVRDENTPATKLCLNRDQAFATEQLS
# EXPERIMENT: cell-based or functional assay
*1 amine or outer side, *2 acyl side, *3 side chain or, on linkers, in order; H or OH if unused. Where no end group is shown, it is not given here. [ ]: non-standard residue; d: D form. NMeF = CN[C@@H](Cc1ccccc1)C(=O)O; Suc = O=C(CCC(=O)[*:2])[*:1]
Exercise: for every item that follows, state its recorded EC50, SRE-Luc reporter (PKC activation), transfected COS-7 cells.
A complete answer gives the number and then names the unit.

So what does the record say about EC50, SRE-Luc reporter (PKC activation), transfected COS-7 cells for Suc-DF[NMeF]GLM-NH2 [Senktide (Succ-Asp-Phe-N(Me)Phe-Gly-Leu-Met-NH2)] ?
2.72 nM

Another binder to check: YNDIDYDSFVGLM-NH2 [Zebrafish Tac3f peptide, neurokinin F (YNDIDYDSFVGLM-NH2)]
0.36 nM

Another binder to check: STGINREAHLPFRPNMNDIFVGLL-NH2 [Zebrafish Tac3b peptide, neurokinin Bb (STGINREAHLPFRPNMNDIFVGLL-NH2)]
33.8 nM

Another binder to check: EMHDIFVGLM-NH2 [Zebrafish Tac3a peptide, neurokinin Ba (EMHDIFVGLM-NH2)]
1.47 nM

Another binder to check: DMHDFFVGLM-NH2 [human NKB (neurokinin B)]
0.82 nM
